IC50 by entry:
Tested on: SUDHL5
Assay: Induction of cytotoxicity (Assay 6), SUDHL5
Settings: read-out: Cytotox SUDHL5 [M] (median) IC50, CellTiter-Glo, 5 hours, SUDHL5

Record excerpt, results attached:
compound	experimental.result
CCc1c2c(nn1C)CN(C)S(=O)(=O)CCCn1c(C(=O)O)c(CCCOc3cccc4cc(F)ccc34)c3ccc(Cl)c-2c31 (single isomer, unassigned; enantiomer 2) [Example 37]	5.7e-06 M
Cc1c2c(nn1C)CN(C)S(=O)(=O)CCCn1c(C(=O)O)c(CCCOc3cccc4cc(F)ccc34)c3ccc(F)c-2c31 (single isomer, unassigned; enantiomer 2) [Example 39]	4.5e-07 M
CCc1c2c(nn1C)C(CCC1CCOCC1)N(C)S(=O)(=O)CCCn1c(C(=O)O)c(CCCOc3cccc4cc(F)ccc34)c3ccc(Cl)c-2c31 (single isomer, unassigned; enantiomer 3) [Example 63]	4.5e-08 M
Cc1c2c(nn1C)C(CCN1CCOCC1)N(C)S(=O)(=O)CCCn1c(C(=O)O)c(CCCOc3cccc4ccccc34)c3cccc-2c31 (single isomer, unassigned; enantiomer 2) [Example 46]	5e-07 M
CCc1c2c(nn1C)C(CCC1CCOCC1)N(C)S(=O)(=O)CCCn1c(C(=O)O)c(CCCOc3cccc4cc(F)ccc34)c3ccc(Cl)c-2c31 (racemic) [Example 59]	5.9e-08 M
CCc1c2c(nn1C)C(CCC1CCOCC1)N(C)S(=O)(=O)CCCn1c(C(=O)O)c(CCCOc3cccc4cc(F)ccc34)c3ccc(Cl)c-2c31 (racemic) [Example 60]	2.8e-08 M
CCc1c2c(nn1C)CN(C)S(=O)(=O)CCCn1c(C(=O)O)c(CCCOc3cccc4cc(F)ccc34)c3ccc(F)c-2c31 (single isomer, unassigned; enantiomer 2) [Example 9]	1.7e-05 M

Continue with the compound presented below.
Annotate the compound CCc1c2c(nn1C)C(CCN1CCOCC1)N(C)S(=O)(=O)CCCn1c(C(=O)O)c(CCCOc3cccc4cc(F)ccc34)c3ccc(Cl)c-2c31 (single isomer, unassigned; enantiomer 1) with its measured IC50.
1.6e-05 M
